Below is a list of entries, each paired with its recorded inhibition at 10 µM value.
molecular target: recombinant human mPGES-1 (Homo sapiens, UniProt O14684); construct: made in house; host or cells: Rosetta E. coli (membrane/microsome fraction); assay: mPGES-1 HTRF assay (inhibition of PGE2 formation from PGH2); format: biochemical; settings: compound concentration of 10 μM, HTRF assay; read-out: % inhibition
Sequence (O14684 whole entry): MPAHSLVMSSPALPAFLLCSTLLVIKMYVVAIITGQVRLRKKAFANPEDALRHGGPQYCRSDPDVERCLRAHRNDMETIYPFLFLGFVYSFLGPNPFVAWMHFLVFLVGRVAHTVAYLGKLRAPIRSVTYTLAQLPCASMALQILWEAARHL
# value in %; strip the unit string

> print(dat)
                                 mol.smiles  numeric.value
1  Cn1c(Nc2cc(CNC(=O)C3(C)CC3)ccc2Cl)nc2cc(C(=O)Nc3ccc(Br)cc3)ccc21            100
2  CC1(C(=O)NCc2ccc(Cl)c(Nc3nc4cc(Cl)c(C(=O)NC5CCCC5)cc4[nH]3)c2)CCCCC1             97
3  Cn1c(Nc2cc(CNS(=O)(=O)c3cccs3)ccc2Cl)nc2cc(C(=O)NCC3CCCCC3)ccc21             98

We next turn to a different molecule, shown below.
Data request: Quick check: inhibition at 10 µM on recombinant human mPGES-1 (Homo sapiens, UniProt O14684), item Cn1c(Nc2cc(CNC(=O)c3c(F)cccc3Cl)ccc2Cl)nc2cc(C(=O)NCC3CCCCC3)ccc21 ?
Data returned: 100

====

target: recombinant human mPGES-1 (Homo sapiens); assay: mPGES-1 HTRF assay (inhibition of PGE2 formation from PGH2); details: HTRF assay
# pIC50 values compiled below
In textbook form, pIC50 equals minus log to base ten of the concentration in mol/L.

// below: answered molecules
> print(dat)
                                   molecule  outcome.measure  numeric.value
1  COc1cc2c(cc1C(=O)Nc1ccc(Br)cc1)nc(Nc1cc(CNC(=O)C3(C(F)(F)F)CC3)ccc1Cl)n2C            pIC50           8.70
2  CC(=O)NCc1ccc(Cl)c(Nc2nc3cc(C(=O)Nc4ccc(Br)cc4)c(OCC(F)F)cc3n2C)c1            pIC50           8.40
3  Cn1c(Nc2cc(CNC(=O)C3(C(F)(F)F)CC3)ccc2Cl)nc2cc(C(=O)NCC3CC3)c(OCC(F)F)cc21            pIC50           9.00
4  Cn1c(Nc2cc(CNS(=O)(=O)C(C)(C)C)ccc2Cl)nc2cc(C(=O)Nc3ccc(Br)cc3)c(OCC(F)F)cc21            pIC50           8.52
5  Cn1c(Nc2cc(CNC(=O)C(C)(C)C)ccc2Cl)nc2cc(C(=O)NCC3CC3(C)C)c(OCC(F)F)cc21 (stereo not drawn)            pIC50           8.70

Data request: Find pIC50 (recombinant human mPGES-1 (Homo sapiens)) for the entry Cn1c(Nc2cc(CNC(=O)C3(C(F)(F)F)CC3)ccc2Cl)nc2cc(C(=O)NCCCC(F)(F)F)c(OCC(F)F)cc21
Data returned: 9.00

Data request: Query pIC50 on recombinant human mPGES-1 (Homo sapiens) for Cn1c(Nc2cc(CNC(=O)C(C)(C)C)ccc2Cl)nc2cc(C(=O)NCC3CCC3)c(OCC(F)F)cc21
Data returned: 8.70

====

inhibition at 10 µM by entry:
molecular target: recombinant human mPGES-1 (Homo sapiens, UniProt O14684); construct: made in house; host or cells: Rosetta E. coli (membrane/microsome fraction); assay: mPGES-1 HTRF assay (inhibition of PGE2 formation from PGH2); type: biochemical; conditions: compound concentration of 10 μM, HTRF assay; read-out: % inhibition
Provide the reading as a plain figure in %.

> print(dat)
                                   compound      outcome.measure  numeric.value
1  CN1CCCCC1CNC(=O)c1ccc2c(c1)nc(Nc1cc(CNC(=O)C3(C)CCCCC3)ccc1Cl)n2C (centres unmarked)  inhibition at 10 µM             98
2  Cn1c(Nc2cc(CNC(=O)C3(C(F)(F)F)CC3)ccc2Cl)nc2cc(C(=O)NCCOC(C)(C)C)ccc21  inhibition at 10 µM             96
3  Cn1c(Nc2cc(CNC(=O)C3(C(F)(F)F)CC3)ccc2Cl)nc2cc(C(=O)NCC3CCCCC3)ccc21  inhibition at 10 µM             98
4  Cn1c(Nc2cc(CNC(=O)C3(CN)CC3)ccc2Cl)nc2cc(C(=O)Nc3ccc(Br)cc3)ccc21  inhibition at 10 µM            100
5  Cn1c(Nc2cc(CNC(=O)C3(C)CCCCC3)ccc2Cl)nc2cc(C(=O)Nc3ccc(Br)cc3)ccc21  inhibition at 10 µM            100

Data request: Checklist item: inhibition at 10 µM tested on recombinant human mPGES-1 (Homo sapiens, UniProt O14684), entry Cn1c(Nc2cc(CNC(=O)C3(C)CCCCC3)ccc2Cl)nc2cc(C(=O)N3CCCC3)ccc21 , value?
Data returned: 100

Data request: Recall the recorded inhibition at 10 µM for Cn1c(Nc2cc(CNC(=O)C3(C)CCCC3)ccc2Cl)nc2cc(C(=O)NCC3CCCCC3)ccc21 with recombinant human mPGES-1 (Homo sapiens, UniProt O14684) and state it.
Data returned: 99

Data request: Query the reported inhibition at 10 µM for recombinant human mPGES-1 (Homo sapiens, UniProt O14684); item: Cn1c(Nc2cc(CNC(=O)OC(C)(C)C)ccc2Cl)nc2cc(C(=O)Nc3ccc(Br)cc3)ccc21
Data returned: 100
